Biological target: T1, 重组人CD40-his蛋白 (human, UniProt P25942 21-193)
T1 construct: extracellular domain; Recombinant protein; also called 人CD40(ECD)-his; huCD40-his; not shown: his tag
T1 sequence (P25942 21-193): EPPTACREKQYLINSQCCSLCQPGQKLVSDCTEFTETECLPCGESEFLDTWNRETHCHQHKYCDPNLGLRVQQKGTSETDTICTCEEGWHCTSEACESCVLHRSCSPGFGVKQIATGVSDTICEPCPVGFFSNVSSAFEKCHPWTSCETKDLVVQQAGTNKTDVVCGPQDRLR
Assay: BLI (Fortebio Blitz), antibody on AMC sensor, huCD40-his 6.25-200 nM
PARAMETER: koff (s⁻¹)
Numbers only; they are read as s⁻¹.

According to the records, this binder APX005M (antibody, V domains shown) VH: QVQLVESGGGVVQPGRSLRLSCAASGFSFSSTYVCWVRQAPGKGLEWIACIYTGDGTNYSASWAKGRFTISKDSSKNTVYLQMNSLRAEDTAVYFCARPDITYGFAINFWGPGTLVTVSS VL: DIQMTQSPSSLSASVGDRVTIKCQASQSISSRLAWYQQKPGKPPKLLIYRASTLASGVPSRFSGSGSGTDFTLTISSLQPEDVATYYCQCTGYGISWPIGGGTKVEIK displays koff of 0.00533
